# EXPERIMENT: Tissue distribution in rats after oral administration
# Type: in vivo, male Sprague-Dawley rats
# EXPERIMENTAL CONDITIONS: male, Sprague-Dawley, rat, jejunum tissue, PO 25 mg/kg, 0.5 h, average, N = 3, read-out: Jejunum Tissue concentration
RESULT TYPE: concentration at 0.5 h
Express the reported value numerically, then name its unit.

Task item: Entry CC(C)(O)CNC(=O)Cc1nc2cnc3[nH]ccc3c2n1[C@H]1CC[C@H](CC#N)CC1 : reported concentration at 0.5 h = ?
Reply: 47200 ng/g

###

# EXPERIMENT: Serum and colonic concentrations in IL-12/IL-18 studies S-1 and S-2
# Type: in vivo, C57BL/6 mice
# EXPERIMENTAL CONDITIONS: C57BL/6, mouse, colon, po, 10 mg/kg, S-1; mice, oral 10 mg/kg; mean±SEM; read-out: Colon 4 h post dosing
RESULT TYPE: concentration at 4 h (ng/g)
Give the value, in units of ng/g, as a plain number.

Task item: Entry CC(C)(O)CNC(=O)Cc1nc2cnc3[nH]ccc3c2n1[C@H]1CC[C@H](CC#N)CC1 [Compound of Formula I] : reported concentration at 4 h = ?
Reply: 6600

###

# EXPERIMENT: Tissue distribution in rats after oral administration
# Type: in vivo, male Sprague-Dawley rats
# EXPERIMENTAL CONDITIONS: male, Sprague-Dawley, rat, duodenum tissue, PO 25 mg/kg, 2 h, average, N = 3, read-out: Duod. Tissue concentration
RESULT TYPE: concentration at 2 h (ng/g)
Give the value, in units of ng/g, as a plain number.

Task item: Entry CC(C)(O)CNC(=O)Cc1nc2cnc3[nH]ccc3c2n1[C@H]1CC[C@H](CC#N)CC1 : reported concentration at 2 h = ?
Reply: 3170

###

# EXPERIMENT: Tissue distribution in rats after oral administration
# Assay type: in vivo, male Sprague-Dawley rats
# EXPERIMENTAL CONDITIONS: male, Sprague-Dawley, rat, duodenum lumen content, PO 25 mg/kg, 0.5 h, average, N = 3, read-out: Duod. Content concentration
RESULT TYPE: concentration at 0.5 h (µg/mL)
Give the value, in units of µg/mL, as a plain number.

Task item: Entry CC(C)(O)CNC(=O)Cc1nc2cnc3[nH]ccc3c2n1[C@H]1CC[C@H](CC#N)CC1 : reported concentration at 0.5 h = ?
Reply: 329

###

# EXPERIMENT: Tissue distribution in rats after oral administration
# Assay type: in vivo, male Sprague-Dawley rats
# EXPERIMENTAL CONDITIONS: male, Sprague-Dawley, rat, duodenum lumen content, PO 25 mg/kg, 1 h, average, N = 3, read-out: Duod. Content concentration
# Description: Preliminary tissue distribution studies were conducted in male Sprague-Dawley rats (N=3/time point) at 0.5, 1, 2, 3, 5, 7, and 24 hours following oral administration of compound of Formula I at a dose of 25 mg/kg. The following tissues were harvested for compound concentration analysis: liver, kidney, brain, muscle, epididymis fat, duodenum, jejunum, ileum, colon (both lumen content and tissue), and plasma. […]
RESULT TYPE: concentration at 1 h
Express the reported value numerically, then name its unit.

Task item: Entry CC(C)(O)CNC(=O)Cc1nc2cnc3[nH]ccc3c2n1[C@H]1CC[C@H](CC#N)CC1 : reported concentration at 1 h = ?
Reply: 45500 ng/mL
